# ASSAY TARGET: Alkaline phosphatase, placental type (Homo sapiens)
# ASSAY TEXT: activation of placental alkaline phosphatase – biochemical, uHTS hits, luminescence, selectivity assay for human IAP activator project, dose response (AID 488888)
# ASSAY CONTEXT: purified PLAP, CDP-Star luminescence, 30 min
Measured EC50, listed per entry.

[[record]]
molecule = "COc1cc(CN2CCC(n3nccc3NC(=O)CCCc3ccccc3)CC2)ccc1F"
reported_value = "81.4 µM"


From here, focus on the item given below.
-- ask Alkaline phosphatase, placental type (Homo sapiens) / EC50 / "COc1ccc(O)c(/C=N/NC(=S)NCCc2ccccc2)c1" : value?
-- reply 19.1 µM
